TEST TARGET: UniProt:P14902
PROCEDURE TEXT: IDO1 Human Whole Blood Assay
Format: cell-based
Set-up: Human whole blood was drawn in sodium heparin coated tubes from healthy internal donors; from tissue; host or cells: human whole blood from healthy donors, stimulated with LPS and IFNγ
RECORDED CONDITIONS: LPS and IFNγ stimulated
Structures can show the parent of a compound that is named as a salt.
Listing of entries alongside the reported pIC50.
By convention, pIC50 is the negative base-10 log of a molar concentration.

O=C(C1CC1)N1CCCc2cc(C3(C(=O)Nc4ccc(F)cc4)CCC3)ccc21 :: 7.96

pIC50 lookup needed for CC(NC(=O)c1ccc(Cl)cc1)c1ccc2c(n1)CCCN2c1nc(C(F)(F)F)nc2ccccc12 (stereo not shown) [Example 358, trifluoroacetate] , thanks.
6.00

pIC50 lookup needed for O=C([C@@H]1CCCCO1)N1CCCc2cc(C3(C(=O)Nc4ccc(F)cc4)CCC3)ccc21 (single isomer, unassigned) , thanks.
7.21

pIC50 lookup needed for Cc1ccnc(C(=O)N2CCCc3nc(C(C)NC(=O)c4ccc(Cl)cc4)ccc32)n1 (stereo not shown) , thanks.
8.22

pIC50 lookup needed for CCc1ccnc(C(=O)N2CCCc3nc(C(C)NC(=O)c4ccc(Cl)cc4)ccc32)c1 (stereo not shown) , thanks.
7.05

pIC50 lookup needed for CC(C(=O)Nc1ccc(F)cc1)c1ccc2c(c1)CCCN2C(=O)c1cnn(C)c1 (stereo not shown) , thanks.
6.49

pIC50 lookup needed for O=C(OC1CC1)N1CCCc2nc(C3(C(=O)Nc4ccc(F)cc4)COC3)ccc21 , thanks.
8.40

====

Listing of entries alongside the reported pIC50.
TEST TARGET: UniProt:P14902
PROCEDURE TEXT: IDO1 Cellular Assay in HeLa Cells Stimulated with IFNγ
Type: cell-based
RECORDED CONDITIONS: about 48 hours, read-out: Hela IC50
Experimental: Biological Assays IDO1 Cellular Assay in HeLa Cells Stimulated with IFNγ HeLa cells were cultured in complete HeLa culture medium (90% EMEM, 10% heat-inactivated fetal bovine serum) and expanded to about 1×10^9 cells. […] Frozen HeLa cells were thawed and transferred into HeLa assay medium (99% complete HeLa culture medium, 1% Pen/Strep) with 20 mL medium/vial of cells. […] The cells were then counted and adjusted to a density of 2×10^5 cells/mL in HeLa assay medium. […]
By convention, pIC50 is the negative base-10 log of a molar concentration.

C[C@H](C(=O)Nc1ccc(F)cc1)c1ccc2c(c1)CCCN2C(=O)C1CC(F)(F)C1 [Example 79] :: 7.46
COc1ccnc(N2CCCc3nc(C4(NC(=O)c5ccc(F)cc5)CC4)ccc32)n1 [Example 298] :: 7.84
O=C(NC1(c2ccc3c(n2)CCCN3C(=O)C2CC2)CCC1)c1ccc(Cl)cc1 [Example 183] :: 8.28

// moving on: another record for pIC50
pIC50 lookup needed for CC(NC(=O)c1ccc(F)cc1)c1ccc2c(n1)CCCN2Cc1cccc(Cl)c1 (stereo not shown) [Example 229] , thanks.
8.46

====

TEST TARGET: IDO1 (Homo sapiens)
Sequence (P14902 whole entry): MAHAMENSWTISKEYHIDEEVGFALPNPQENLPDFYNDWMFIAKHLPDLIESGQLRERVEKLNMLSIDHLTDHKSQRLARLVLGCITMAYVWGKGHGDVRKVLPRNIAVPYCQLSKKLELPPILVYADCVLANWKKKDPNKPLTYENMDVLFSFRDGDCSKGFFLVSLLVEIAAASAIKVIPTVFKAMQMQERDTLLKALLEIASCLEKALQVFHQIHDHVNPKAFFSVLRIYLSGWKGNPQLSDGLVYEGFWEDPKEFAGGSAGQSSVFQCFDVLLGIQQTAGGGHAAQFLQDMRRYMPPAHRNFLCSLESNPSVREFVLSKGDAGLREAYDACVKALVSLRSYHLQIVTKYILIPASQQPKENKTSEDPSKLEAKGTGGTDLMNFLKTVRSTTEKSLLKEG
PROCEDURE TEXT: IDO1 Cellular Assay in HeLa Cells Stimulated with IFNγ
Format: cell-based
RECORDED CONDITIONS: about 48 hours, read-out: Hela IC50
pIC50: −log10 of the molar value.
Category scheme (pIC50): lower bin: < 7; middle bin: ≥ 7 and < 8; upper bin: ≥ 8

CC(C)c1cc(C(=O)NCc2ccc3c(c2)CCCN3C(=O)c2cccc(Cl)c2)on1 :: lower bin
C[C@H](C(=O)Nc1ccc(F)cc1)c1ccc2c(c1)CCCN2C(=O)C1CCC1 :: upper bin
CC(C)[C@H](O)C(=O)N1CCCc2cc([C@H](C)C(=O)Nc3ccc(F)cc3)ccc21 (single isomer, unassigned) :: lower bin

Which bin should I file O=C(C1CC1)N1CCCc2nc(C3(C(=O)Nc4ccc(F)cn4)CCC3)ccc21 under?
middle bin

Which bin should I file CC(C)C(C(=O)Nc1ccc(F)cc1)c1ccc2c(n1)CCCN2C(=O)C1CC1 (stereo not shown) [Example 264] under?
middle bin

Which bin should I file CC(C)CC(=O)N1CCCc2cc(CNC(=O)c3ccc(C(C)C)cc3)ccc21 under?
lower bin

Which bin should I file Cc1nccc(N2CCCc3nc(C(C)(C)C(=O)Nc4ccc(F)cc4)ccc32)n1 under?
upper bin

Which bin should I file C[C@H](C(=O)Nc1ccc(F)cc1)c1ccc2c(c1)CCCN2C(=O)c1cccc(Cl)c1 (single isomer, unassigned) under?
upper bin

====

TEST TARGET: IDO1 (Homo sapiens)
PROCEDURE TEXT: IDO1 Human Whole Blood Assay
Format: cell-based
Parameters: Human whole blood was drawn in sodium heparin coated tubes from healthy internal donors; from tissue; host or cells: human whole blood from healthy donors, stimulated with LPS and IFNγ
RECORDED CONDITIONS: LPS and IFNγ stimulated
RECORDED METRIC: pIC50
By convention, pIC50 is the negative base-10 log of a molar concentration.

// known answers, use as guide
Cc1nccc(N2CCCc3nc(C(C)(C)C(=O)Nc4ccc(Cl)cc4)ccc32)n1 [Example 390] :: 7.14
Cc1nccc(N2CCCc3nc(C4(C(=O)Nc5ccc(F)cc5)CC4(F)F)ccc32)n1 (single isomer, unassigned) [Example 422] :: 7.92
CC(NC(=O)c1ccc(F)cc1)c1ccc2c(c1)CCCN2C(CO)c1cccc(Cl)c1 (single isomer, unassigned) [Example 93] :: 6.35
Cc1cncc(N2CCCc3nc(C4(NC(=O)c5ccc(Cl)cc5)CCC4)ccc32)c1 [Example 406] :: 5.53

pIC50 lookup needed for O=C(N[C@H](c1ccc2c(n1)CCCN2C(=O)C1CC1)C(F)(F)F)c1ccc(F)cc1 [Example 424] , thanks.
6.84

====

Listing of entries alongside the reported pIC50.
TEST TARGET: IDO1 (Homo sapiens)
PROCEDURE TEXT: IDO1 Cellular Assay in HeLa Cells Stimulated with IFNγ
Format: cell-based
RECORDED CONDITIONS: about 48 hours, read-out: Hela IC50
By convention, pIC50 is the negative base-10 log of a molar concentration.

CC(C(=O)Nc1ccc(F)cc1)c1ccc2c(c1)CCCN2C(=O)C1CCCO1 (centres unmarked) :: 8.27
Cc1cncc(N2CCCc3nc(C4(NC(=O)c5ccc(Cl)cc5)CCC4)ccc32)c1 :: 8.50
Cc1cc(N2CCCc3nc(C4(NC(=O)c5ccc(F)cc5)CC4)ccc32)ccn1 :: 7.84
CC(C(=O)Nc1ccc(Cl)cc1)c1ccc2c(c1)CC(F)CN2C(=O)c1cccc(Cl)c1 (single isomer, unassigned) [Example 257] :: 8.87
O=C(Nc1ccc(F)cn1)C1(c2ccc3c(c2)CCCN3S(=O)(=O)N2CCCC2)CCC1 :: 7.17

Recorded pIC50 for O=C(Nc1ccc(Cl)cc1)C1(c2ccc3c(n2)CCCN3c2ccnc(C(F)(F)F)n2)COC1 with IDO1 (Homo sapiens), please?
8.74

Recorded pIC50 for CC1(C(=O)N2CCCc3cc(C4(C(=O)Nc5ccc(F)cc5)CCC4)ccc32)CC1 with IDO1 (Homo sapiens), please?
8.46

Recorded pIC50 for CC(NC(=O)c1ccc(Cl)cc1)c1ccc2c(n1)CCCN2C(=O)c1cc(C(F)F)ccn1 (centres unmarked) with IDO1 (Homo sapiens), please?
8.57

====

TEST TARGET: IDO1 (Homo sapiens)
PROCEDURE TEXT: IDO1 Cellular Assay in HeLa Cells Stimulated with IFNγ
Format: cell-based
RECORDED CONDITIONS: about 48 hours, read-out: Hela IC50
Listing of entries alongside the reported IC50.
# output: bare number, implied unit nM

// known answers, use as guide
CCn1ccc(C(=O)NCc2ccc3c(c2)CCCN3C(=O)c2cccc(Cl)c2)n1 :: 99.8
Cn1ccc(C(=O)NCc2ccc3c(c2)CCCN3C(=O)c2cccc(Cl)c2)n1 :: 136
CC(NC(=O)c1ccc(F)cc1)c1ccc2c(n1)CCCN2C(=O)c1cccc(Cl)c1Cl (centres unmarked) :: 2.5
C[C@@H](NC(=O)c1ccc(F)cc1)c1ccc2c(c1)CCCN2C(=O)C1(F)CC1 (single isomer, unassigned) :: 1230
CC(NC(=O)c1ccc(F)cc1)c1ccc2c(n1)CCCN2C(=O)[C@@H]1CCCCO1 (some centres unmarked) :: 48.7
C[C@@H](C(=O)Nc1ccc(F)cn1)c1ccc2c(c1)CCCN2C(=O)C1(F)CC1 (single isomer, unassigned) :: 524
CC(NC(=O)c1ccc(F)cc1)c1ccc2c(n1)CCCN2C(=O)OCCF (centres unmarked) :: 5.5
CC(NC(=O)c1ccc(F)cc1)c1ccc2c(c1)CCCN2C(CO)c1cccc(Cl)c1 (single isomer, unassigned) [Example 95] :: 545
O=C(C1CCCCO1)N1CCCc2nc(C3(C(=O)Nc4ccc(F)cc4)CCC3)ccc21 (single isomer, unassigned) [Example 179] :: 1.8
Cc1cc(C(=O)NCc2ccc3c(c2)CCCN3C(=O)c2cccc(Cl)c2)no1 :: 45

// moving on: another record for IC50
Recorded IC50 for O=C(Nc1ccc(Cl)cc1)C1(c2ccc3c(n2)CCCN3c2cccc(C3CC3)n2)CCC1 with IDO1 (Homo sapiens), please?
11.5

Reference source for all entries: patent US12275729B2
